# Test system: OVCAR-5
# PROCEDURE DETAILS: NCI tumour cell line growth inhibition, 48 h
Calls of active or inactive are those of the source. No stated cut-off is given here; in the data, active = GI50 up to about 1.1 µM and inactive = higher.
Can you answer with just one of these options? active, inactive

CC[C@@H](C)[C@H]([C@H](CC(=O)N1CCC[C@@H]1[C@@H](OC)[C@H](C)C(=O)N[C@H](Cc1ccccc1)c1nccs1)OC)N(C)C(=O)[C@H](NC(=O)[C@@H](C(C)C)N(C)C)C(C)C    active
O=C1O/C(=C\C=C\CO)C=C1/C=C/CO [LISSOCLINOLIDE]    inactive
O=C1CS(=O)(=O)C(c2cccc(Oc3ccccc3)c2)N1c1ccccc1 (centres undefined)    inactive

Proceed to the following item.
Exam item: # lookup: test call for O=c1ccc2ccccc2c2ccccc12
Marked response: inactive

Reference source: ChEMBL document CHEMBL1201862
